Kindly supply the reported Selectivity fold (TYK2/JAK2) values for the records listed here.
Tested on: JAK2, TYK2/p-STAT4 (Tyr693) activated by IL-12 in NK-92 cell line
protocol_notes: IL-12-JAK2, TYK2/p-STAT4 (Tyr693) inhibition IC50 cellular assay
Type: cell-based
applied_conditions: Cellular assay; pSTAT5/GM-CSF IC50 vs pSTAT4/IL-12 IC50

The molecule listed as CC(=O)Nc1cc(Nc2cccc(S(C)(=O)=O)c2)c(-c2ccc(C(F)(F)F)cn2)cn1 shows Selectivity fold (TYK2/JAK2) equal to >451 fold

The molecule listed as [2H]C([2H])([2H])Oc1cc(Nc2cc(NC(C)=O)ncc2-c2ccc(N3C[C@@H](C)O[C@@H](C)C3)cn2)nc(S(C)(=O)=O)c1 shows Selectivity fold (TYK2/JAK2) equal to >16528 fold

The molecule listed as CC(=O)Nc1cc(Nc2cccc(S(N)(=O)=O)n2)c(-c2ccccn2)cn1 shows Selectivity fold (TYK2/JAK2) equal to >3952 fold

The molecule listed as COCc1ccc(-c2cnc(NC(C)=O)cc2Nc2cc(OCCO)cc(S(C)(=O)=O)n2)nc1 shows Selectivity fold (TYK2/JAK2) equal to >3676 fold

---

System: JAK2, TYK2/p-STAT4 (Tyr693) activated by IL-12 in NK-92 cell line
protocol_notes: IL-12-JAK2, TYK2/p-STAT4 (Tyr693) inhibition IC50 cellular assay
Format: cell-based
applied_conditions: Cellular assay; pSTAT5/GM-CSF IC50 vs pSTAT4/IL-12 IC50
Kindly supply the reported Selectivity fold (TYK2/JAK2) values for the records listed here.

The molecule listed as CC(=O)Nc1cc(Nc2cc(C(F)(F)F)cc(S(C)(=O)=O)c2)c(-c2ccc(C(C)(C)O)cn2)cn1 shows Selectivity fold (TYK2/JAK2) equal to >843 fold

The molecule listed as CC(=O)Nc1cc(Nc2cccc(S(C)(=O)=O)c2)c(-c2ccc(N3C[C@@H](C)O[C@@H](C)C3)cn2)cn1 shows Selectivity fold (TYK2/JAK2) equal to >1721 fold

The molecule listed as COCCOc1ccc(-c2cnc(NC(C)=O)cc2Nc2cc(OC[C@@H](C)OC)cc(S(C)(=O)=O)n2)nc1 shows Selectivity fold (TYK2/JAK2) equal to >12422 fold

The molecule listed as COCCOc1ccc(-c2cnc(NC(C)=O)cc2Nc2cccc(S(C)(=O)=O)n2)nc1 [Example D1] shows Selectivity fold (TYK2/JAK2) equal to >39840 fold

The molecule listed as COCCOc1ccc(-c2cnc(NC(C)=O)cc2Nc2cc(OC)cc(S(C)(=O)=O)n2)nc1 shows Selectivity fold (TYK2/JAK2) equal to >10101 fold

The molecule listed as COCc1ccc(-c2cnc(NC(C)=O)cc2Nc2cc(C)cc(S(C)(=O)=O)n2)nc1 [Example E2] shows Selectivity fold (TYK2/JAK2) equal to 17867 fold

The molecule listed as COCC1CN(c2ccc(-c3cnc(NC(C)=O)cc3Nc3cc(OC(C)C)cc(S(C)(=O)=O)n3)nc2)CCO1 (centres unmarked) shows Selectivity fold (TYK2/JAK2) equal to >9523 fold

The molecule listed as CC(=O)Nc1cc(Nc2cc(OC(F)(F)F)cc(S(C)(=O)=O)c2)c(-c2ccc(C(C)(C)O)cn2)cn1 shows Selectivity fold (TYK2/JAK2) equal to >1805 fold

The molecule listed as COCCOc1cc(Nc2cc(NC(C)=O)ncc2-c2ccccn2)nc(S(C)(=O)=O)c1 shows Selectivity fold (TYK2/JAK2) equal to >8264 fold

The molecule listed as CC(=O)Nc1cc(Nc2nc(S(C)(=O)=O)ccc2C)c(-c2ccc(C(C)(C)O)cn2)cn1 shows Selectivity fold (TYK2/JAK2) equal to >22371 fold

The molecule listed as CC(=O)Nc1cc(Nc2cc(C)cc(S(C)(=O)=O)c2)c(-c2ccc(C(C)(C)O)cn2)cn1 shows Selectivity fold (TYK2/JAK2) equal to >4464 fold

The molecule listed as CC(=O)Nc1cc(Nc2cc(OC3CC3)cc(S(C)(=O)=O)c2)c(-c2ccc(C(C)(C)O)cn2)cn1 shows Selectivity fold (TYK2/JAK2) equal to >1754 fold

The molecule listed as CC(=O)Nc1cc(Nc2cc(C3CC3)cc(S(C)(=O)=O)n2)c(-c2ccc(F)cn2)cn1 shows Selectivity fold (TYK2/JAK2) equal to >22421 fold

The molecule listed as CC(=O)Nc1cc(Nc2cncc(S(C)(=O)=O)n2)c(-c2ccc(N3C[C@@H](C)O[C@@H](C)C3)cn2)cn1 shows Selectivity fold (TYK2/JAK2) equal to >21008 fold

The molecule listed as CC(=O)Nc1cc(Nc2cccc(S(C)(=O)=O)n2)c(-c2c[nH]cn2)cn1 shows Selectivity fold (TYK2/JAK2) equal to >3952 fold

The molecule listed as COc1cc(Nc2cc(NC(C)=O)ncc2-c2ccc(N3C[C@@H](C)O[C@@H](C)C3)cn2)nc(S(C)(=O)=O)c1 shows Selectivity fold (TYK2/JAK2) equal to >14880 fold

The molecule listed as COc1cc(Nc2cc(NC(C)=O)ncc2-c2ccc(F)cn2)nc(S(C)(=O)=O)c1 shows Selectivity fold (TYK2/JAK2) equal to >5494 fold

The molecule listed as COC(C)c1cc(Nc2cc(NC(C)=O)ncc2-c2ccc(N3C[C@@H](C)O[C@@H](C)C3)cn2)nc(S(C)(=O)=O)c1 (some centres unmarked) shows Selectivity fold (TYK2/JAK2) equal to 7625 fold

The molecule listed as CC(=O)Nc1cc(Nc2cc(OCC3CC3)cc(S(C)(=O)=O)n2)c(-c2ccc(N3C[C@@H](C)O[C@@H](C)C3)cn2)cn1 shows Selectivity fold (TYK2/JAK2) equal to >456 fold

The molecule listed as CC(=O)Nc1cc(Nc2cc(N3CCOC[C@@H]3C)cc(S(C)(=O)=O)n2)c(-c2ccc(N3C[C@@H](C)O[C@@H](C)C3)cn2)cn1 shows Selectivity fold (TYK2/JAK2) equal to 4126 fold

The molecule listed as COc1ccc(-c2cnc(NC(C)=O)cc2Nc2nc(S(C)(=O)=O)cc3c2OCO3)nn1 shows Selectivity fold (TYK2/JAK2) equal to >6578 fold

The molecule listed as CC(=O)Nc1cc(Nc2cccc(S(C)(=O)=O)n2)c(-c2ccc(C(C)(C)O)cn2)cn1 shows Selectivity fold (TYK2/JAK2) equal to 5185 fold

The molecule listed as COc1ccc(-c2cnc(NC(C)=O)cc2Nc2cc(OCC3CC3)cc(S(C)(=O)=O)n2)nn1 shows Selectivity fold (TYK2/JAK2) equal to >16778 fold
